All figures here come from the RNAGym collection of RNA variant scans (doi:10.1021/acssynbio.7b00057).

B1: Pistol ribozyme (parent)
chain: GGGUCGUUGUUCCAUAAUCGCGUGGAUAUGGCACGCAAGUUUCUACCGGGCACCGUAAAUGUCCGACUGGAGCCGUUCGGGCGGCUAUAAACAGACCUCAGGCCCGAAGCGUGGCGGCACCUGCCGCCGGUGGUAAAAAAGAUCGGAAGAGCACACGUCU

variants of: B1; assay: aptazyme ON/OFF ratio, guanine; higher = stronger switching; co-transcriptional cleavage with and without guanine
Reported aptazyme ON/OFF ratio values for the following variants.
Lab note: record just the number, no unit beside it.

- U8G G9C U11G C12A C13A: 1.08

Q) Item under review: U7C U8C G9A U10G U11G C12U C13G . Reported aptazyme ON/OFF ratio?
A) 1.11

Q) Item under review: U8C G9C U10A C12U C13A . Reported aptazyme ON/OFF ratio?
A) 1.08
